Tested on: PPIs identified as affected by the SH3 domain deletions
Protocol Notes: Liquid DHFR-PCA low-throughput validation of PPIs affected by SH3 deletion (Fig. S1D-E)
Type: cell-based, Saccharomyces cerevisiae
Settings: bait MYO3; label = prey; liquid DHFR-PCA; prey _1 = lost, _2 = gained in screen
Result Type: Ratio (Deletedscore / WTscore)
No unit in the answer, please; the number alone is enough.

Query: Endpoint output: Ratio (Deletedscore / WTscore) of YCR009C_1 (protein, UniProt P25343 1-265, looked up) Reduced viability upon …: MSWEGFKKAINRAGHSVIIKNVDKTIDKEYDMEERRYKVLQRAGEALQKEAKGFLDSLRAVTASQTTIAEVISNLYDDSKYVAGGGYNVGNYYLQCVQDFDSETVKQLDGPLRETVLDPITKFSTYFKEIEEAIKKRDHKKQDFDAAKAKVRRLVDKPAKDASKLPRAEKELSLAKDIFENLNNQLKTELPQLVSLRVPYFDPSFEALIKIQLRFCTDGYTRLAQIQQYLDQQSRDDYANGLLDTKIEELLGQMTSLDICALGIK . Value?
Reply: 0.6894

Query: Endpoint output: Ratio (Deletedscore / WTscore) of YKL051W_1 (protein, UniProt P35735 1-353, looked up) Protein SFK1: MIQFKSPGNWLFIVPWIAFIPWYGMLIAMLICWASQGHPIYWFMHSEQFPVYISDIGATNLRPLFISCAGWQGLGYVITVALEFFQRSGYLPFQLKKKDPSISDSTSYAEKLHSGKYLMPPYYTKDERNLIFAAFVLGSIGELALLFSSIFSTALYHRVHIAMVSVFVVFMFLSTCCLIAEYFLMGRHYASVHPLASPHFNPQSSEKSFNQDYNTVDELPWYKWKGHVWNKFTISATLKVIWLTLAVVWAICFGAINDRSKSACFEWLLAFWFGIIFMILSADFYLGGRYRQSRYFNHVESFSGYYKYDKALGLYHSEDVLPSDDNAGVIATETASSNIYNNSSSNESIQVVV . Value?
Reply: 0.5607
